assay: Hemolytic activity in human erythrocytes incubated for 1 hr; assay type: toxicity, cell-based, Erythrocyte
Positions of bridges follow the written chain, without caps; N, C: chain ends. Non-standard residues stand in square brackets, D forms with d. Residues, ends and D or L forms follow the SMILES beside them. R8 = C=CCCCCCC[C@@](C)(N)C(=O)O; S5 = C=CCCC[C@](C)(N)C(=O)O
assay.metric: HC50 at 1 h (µM)
Please respond with the number in µM and leave the unit unwritten.

Quick one: HC50 at 1 h of CC[C@H](C)[C@@H]1NC(=O)[C@H](CCCCN)NC(=O)[C@H](CCCCN)NC(=O)[C@](C)(NC(=O)[C@H](CC(N)=O)NC(=O)[C@@H](N)C(C)C)CCCCCC/C=C\CCC[C@@](C)(C(=O)N[C@H](C(=O)N[C@@H](CCCCN)C(=O)N[C@H](C(=O)N[C@H](C(=O)N[C@@H](CCCCN)C(N)=O)C(C)C)C(C)C)[C@@H](C)CC)NC(=O)[C@H](CCCCN)NC(=O)CNC(=O)[C@H](CC(C)C)NC1=O (H-VN[R8]KKILGK[S5]IKVVK-NH2; staple (Z) 3-10) ?
100
